- assay system: Cdk4 (Homo sapiens, UniProt P11802)
- Sequence (P11802 whole entry): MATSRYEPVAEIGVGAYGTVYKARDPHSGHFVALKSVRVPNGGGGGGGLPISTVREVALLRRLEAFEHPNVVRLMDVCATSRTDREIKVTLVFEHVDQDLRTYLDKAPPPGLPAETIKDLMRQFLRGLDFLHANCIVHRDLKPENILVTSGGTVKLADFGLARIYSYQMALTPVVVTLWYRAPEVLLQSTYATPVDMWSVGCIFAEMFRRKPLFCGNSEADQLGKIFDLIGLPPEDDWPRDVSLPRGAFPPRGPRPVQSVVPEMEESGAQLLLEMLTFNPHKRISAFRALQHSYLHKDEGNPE
measured endpoint: Kd (µM)
Could you give me the number in µM? Just the number is fine.

Please fill in: Kd reported for O=c1cc(-c2ccc(O)cc2)oc2cc(O)cc(O)c12 = 7

* * *

- assay system: UniProt:Q00535
- Sequence (Q00535 whole entry): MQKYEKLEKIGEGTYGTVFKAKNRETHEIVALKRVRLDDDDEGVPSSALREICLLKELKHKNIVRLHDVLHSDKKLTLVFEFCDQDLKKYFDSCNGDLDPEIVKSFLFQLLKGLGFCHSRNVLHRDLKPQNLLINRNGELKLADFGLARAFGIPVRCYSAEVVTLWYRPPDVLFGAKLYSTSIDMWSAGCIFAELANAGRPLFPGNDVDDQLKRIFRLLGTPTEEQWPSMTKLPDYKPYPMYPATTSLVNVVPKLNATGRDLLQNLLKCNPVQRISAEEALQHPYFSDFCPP
measured endpoint: Kd (µM)
# number only, unit µM dropped from output

Item: O=c1cc(-c2ccc(O)cc2)oc2cc(O)cc(O)c12 | Kd: 3.9

* * *

- assay system: Cdk9 (Homo sapiens)
- Sequence (P50750 whole entry): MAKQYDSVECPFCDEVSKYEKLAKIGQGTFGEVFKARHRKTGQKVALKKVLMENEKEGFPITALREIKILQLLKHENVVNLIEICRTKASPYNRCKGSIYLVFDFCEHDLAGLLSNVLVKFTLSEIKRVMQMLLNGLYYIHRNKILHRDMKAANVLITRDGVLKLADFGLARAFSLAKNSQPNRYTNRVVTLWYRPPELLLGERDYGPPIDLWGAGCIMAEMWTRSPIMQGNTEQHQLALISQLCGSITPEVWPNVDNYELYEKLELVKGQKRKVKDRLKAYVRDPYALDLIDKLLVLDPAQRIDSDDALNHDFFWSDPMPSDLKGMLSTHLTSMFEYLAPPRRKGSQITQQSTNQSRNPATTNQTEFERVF
- protocol: Cdk kinase profiling assay (Ambit Biosciences)
- Format: binding
measured endpoint: pKd
# log scale: pKd equals minus log10 of the concentration in mol/L

Entry O=c1cc(-c2ccc(O)cc2)oc2cc(O)cc(O)c12 — recorded pKd = 5.70
